# System: HCC1954 cells
# RUN_DESCRIPTION: Cytotoxicity of compounds, CellTiter-Glo
# Format: cell-based
# MEASUREMENT_CONDITIONS: Homo sapiens; Table 2; HCC1954; read-out: HCC1954 EC50
pEC50: −log10 of the molar value.
Could you label it Condition met if measured pEC50 is 9 or higher, and Condition not met otherwise?

Exam item: decide whether the reported pEC50 for "CN[C@H](C(=O)N[C@H](C(=O)N(C)[C@H](/C=C(\C)C(=O)NS(=O)(=O)c1ccc(C)cc1)C(C)C)C(C)(C)C)C(C)(C)c1ccccc1" is at least 9.
Condition met

Is it the case that "CN[C@H](C(=O)N[C@H](C(=O)N(C)[C@H](/C=C(\C)C(=O)NS(=O)(=O)CCS)C(C)C)C(C)(C)C)C(C)(C)c1ccccc1" has pEC50 reaching or exceeding 9?
Condition not met

Tell me whether pEC50 is at least 9 here: "CN[C@H](C(=O)N[C@H](C(=O)N(C)[C@H](/C=C(\C)C(=O)NS(=O)(=O)CCCS)C(C)C)C(C)(C)C)C(C)(C)c1ccccc1"
Condition not met
